test: protein stability index of a GFP-peptide fusion (yeast GPS) (PSI 1-4); higher = more stable; sorted into four equal gates, so the index is relative within each strain; settings: san1∆
property: protein stability index
Write the value as a bare number.

1) YSLASVTLKGAKALESL [POP1]: 2.83
2) EKESDDGLLEYLEDIIG [SMC4]: 3.15
3) ALVAGIERYPSKVTKKH [RPL27B]: 1.47
4) CEQQPSQEREFSLLVKA [SIN4]: 2.94
5) QEGLAKFGACVAQGIMN [RPN2]: 1.88

Please give the measured protein stability index for this sequence: DQSIASGNTNGAGSAFG [YOR098C/NUP1]
2.44

Can you share its protein stability index? I mean this sequence: LPPPPPPPGLDELETKA [PRP8]
3.25

###

assay: protein stability index of a GFP-peptide fusion (yeast GPS) (PSI 1-4); higher = more stable; sorted into four equal gates, so the index is relative within each strain; settings: ubr1∆
property: protein stability index

Request the reported protein stability index associated with RIHRLARYYRTVAVLPP [RPS13]
2.11

Which protein stability index reading was recorded for the sequence DPNLSFESSSSLPFLLR [SSN2] ?
2.82

I have this sequence here, GVITVHNVFSKEQTIQL [RPN14] , and I need its recorded protein stability index.
3.12

Query: protein stability index; subject: IDMIADENGTNSAIANE [RPC37]
3.17

What value of measured protein stability index is listed for TTNLDIDLLTFQYGSRL [RPP1] ?
2.98

Which protein stability index reading was recorded for the sequence LKYPELSIKNSFIINFI [NUT1] ?
1.94

Consider the sequence SSEILSYLSNSLDTSAS [YML103C/NUP188] and give its measured protein stability index.
2.65

What does the record list as protein stability index for RASKALIERYYPKLTLD [RPS17A] ?
2.37

Query: protein stability index; subject: ELSIRDVTHTLGMLDDN [SMC4]
3.27

Would you mind telling me what protein stability index value was observed for EPDRDENWIHVSCLSFM [LIN1] ?
3.11

So what does the record say about protein stability index for QELLNAETLCFTVNVLY [RPN3] ?
2.87

Report protein stability index for FKRDLLREKEDKKNSSD [YJL039C/NUP192] please.
3

Consider the sequence shown here: KTLNLFKQIKSADCELL [RPO31] What is its recorded protein stability index?
1.05

Item under review: PQTPLVEPVTERTKLQE [SNU114] . Reported protein stability index?
3.31

Which protein stability index value belongs to IESFVELGVSIYDFPGT [NUT2] ?
2.2

Requested read-out: protein stability index. Entry: KYLDQVLDHQRAIPFRR [RPL17B]
1.61

Requested read-out: protein stability index. Entry: GASVISLTKDKSIRKDT [SIR4]
3.13

###

test: protein stability index of a GFP-peptide fusion (yeast GPS) (PSI 1-4); higher = more stable; sorted into four equal gates, so the index is relative within each strain; conditions: san1∆
# binarize protein stability index: threshold 3 inclusive, high side Condition met, low side Condition not met

1. QAQAQVYAQQSTVQTPI [PGD1]: Condition not met
2. LYQIWIVMVWLKENTYV [YDL116W/NUP84]: Condition not met
3. ATTSVMMVNNQTMQLIK [SRB6]: Condition not met
4. VDSISLHKIFYKVLKNN [YCG1]: Condition not met
5. HELSRAELEELEEFEFK [SMD2]: Condition met

Quick check: does TVFLPMVGLVDPDKLKP [RPT5] have protein stability index greater than or equal to 3?
Condition not met

Quick check: does YKLNVRSNDPQSSLSKV [NUT2] have protein stability index greater than or equal to 3?
Condition met

// inclusive: protein stability index at least 3? input: SYDVENVNSRNQLVEPN [SRB5]
Condition met

Answer whether protein stability index of VTSEKYPFDKLESWWLV [BRR2] is greater than or equal to 3.
Condition not met

The reported numbers originate from the supplement of paper PMC9732359.
